# Tgt: CYP2C19 (Homo sapiens, UniProt P33261)
# Sequence (P33261 whole entry): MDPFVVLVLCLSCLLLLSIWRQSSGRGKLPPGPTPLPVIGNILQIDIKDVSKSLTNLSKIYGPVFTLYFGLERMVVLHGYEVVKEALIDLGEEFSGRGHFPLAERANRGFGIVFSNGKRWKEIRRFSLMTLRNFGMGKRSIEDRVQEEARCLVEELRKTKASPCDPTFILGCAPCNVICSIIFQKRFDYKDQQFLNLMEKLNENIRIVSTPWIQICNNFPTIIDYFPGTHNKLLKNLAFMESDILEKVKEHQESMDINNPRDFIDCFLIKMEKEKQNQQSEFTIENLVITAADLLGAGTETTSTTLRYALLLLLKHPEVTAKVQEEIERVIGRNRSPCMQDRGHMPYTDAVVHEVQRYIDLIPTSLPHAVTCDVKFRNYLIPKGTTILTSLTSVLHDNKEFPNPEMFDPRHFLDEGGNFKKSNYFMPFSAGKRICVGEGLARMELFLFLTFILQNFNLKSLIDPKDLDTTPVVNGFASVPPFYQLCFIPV
# Experiment: Time dependent inhibition of human recombinant CYP2C19 coexpressed in Escherichia coli at 50 uM using mephenytoin as probe
# Type: ADME
Recorded metric: inhibition at 50 µM

Below are worked cases with known answers.
• c1cc(-c2nnc(C3CCCCC3)o2)ccn1 = 13%
• O=C(NCc1ccncc1)c1nnc(CS(=O)(=O)c2ccccc2)o1 = < 12%
• O=C(NC1CCCCC1)c1nnc(CS(=O)(=O)c2ccccc2)o1 = < 12%
• Clc1cc(-c2nc(CSc3nnc(-c4ccncc4)n3C3CC3)no2)ccn1 = < 12%

Would you kindly look at the next entry?
Which inhibition at 50 µM is reported with CYP2C19 (Homo sapiens, UniProt P33261) for this entry: `c1cc(-c2noc(C3CCCCC3)n2)ccn1` ? < 12%
